Test system: ARK5;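 note: KINOMEscan kinase panel screen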
Construct: gene NUAK1
Run Conditions: concentration: 1 μM, replicates: in singlicate; n = 1
Readout: %Inh (%)
Express the result in % but write the number alone.

Examples with their reported %Inh follow.
CC1=C(C(=O)Nc2cc3cn[nH]c3cc2F)C(c2ccc(C(F)(F)F)cc2)CC(=O)N1 (stereo not shown)    7
CC(C)(C)c1ccc(C(=O)Nc2cn3cc(-c4cccnc4)ccc3n2)cc1    14
Cn1ccc2ncnc(Oc3cccc(C(=O)Nc4ccccc4)c3)c21    14
Cc1cc(-c2ccc3c(c2)CC[C@@H](N[C@@H](C)c2ccccc2)C3)cnc1N.Cl    13
Cc1ccc(NC(=O)Nc2cccc(Cl)c2)cc1-c1ccc(C(=O)Nc2ccncc2)cc1    6

# query: %Inh of entry O=C(Nc1ccccc1)Nc1cccc(Oc2ccc3nccn3n2)c1 0

# query: %Inh of entry C[C@@H]1CCCCN1c1cc(-c2ccc3c(N)n[nH]c3c2)nc(N)n1 0

# query: %Inh of entry Fc1cc(Cl)ccc1Nc1ccnc2cc(-c3ccc(CN4CCCCC4)o3)ccc12 0

# query: %Inh of entry O=S(=O)(c1ccc(-c2ccnc3[nH]ccc23)cc1)N1CCCC1 0

# query: %Inh of entry Cc1cccc(-c2cc(Nc3ccncc3)c3ccccc3n2)n1 8
